# assayed.target: HLA-B5801 (Homo sapiens, UniProt P01889, A329T/C349S/D201E/D98Y/E176V/E187L/E204Q/E69T/G107R/I218V/I90N/K202T/L105A/L119I/N104I/N87E/Q89R/Q94S/R106L/R155S/R180L/R86G/S101N/S121R/S35A/S48A/T118I/V127L/V306I/V36M/Y140S/Y91M)
# protocol.notes: Competitive peptide binding assay, CIR-B5801
# study.conditions: HMy2.CIR-B5801 cells, reference Cy5-[…], class from inhibition at 5 and 15 μM, flow cytometry MFI; read-out: Binding affinity with HLA-B5801
pIC50: −log10 of the molar value. Peptide text beside a SMILES is read from it.
Consider the following molecules; for each one, report its pIC50.

Here's what some known entries look like.
* CC(C)C[C@H](N)C(=O)N[C@H](C(=O)N[C@@H](CCCCN)C(=O)N1CCC[C@H]1C(=O)N[C@@H](CO)C(=O)N[C@@H](Cc1ccccc1)C(=O)N[C@@H](Cc1ccc(O)cc1)C(=O)N[C@H](C(=O)N[C@@H](Cc1ccc(O)cc1)C(=O)O)C(C)C)C(C)C [Epitope Y125] (H-LVKPSFYVY-OH; N-terminus and C-terminus assumed) | 4.82 to 5.30
* CC(C)C[C@H](NC(=O)[C@H](CC(=O)O)NC(=O)[C@@H](NC(=O)[C@H](CC(=O)O)NC(=O)[C@@H](NC(=O)[C@H](Cc1c[nH]cn1)NC(=O)[C@H](CO)NC(=O)[C@H](CCC(=O)O)NC(=O)[C@H](C)N)C(C)C)[C@@H](C)O)C(=O)O [Epitope Y198] (H-AESHVDTDL-OH; N-terminus and C-terminus assumed) | < 4.82

Then this molecule:
Given the molecule CC[C@H](C)[C@H](NC(=O)[C@H](CC(N)=O)NC(=O)[C@H](CCCCN)NC(=O)[C@H](Cc1ccccc1)NC(=O)[C@@H](NC(=O)[C@@H](N)Cc1ccccc1)C(C)C)C(=O)N[C@@H](CC(=O)O)C(=O)NCC(=O)N[C@@H](Cc1ccc(O)cc1)C(=O)O [Epitope Y172] (H-FVFKNIDGY-OH; N-terminus and C-terminus assumed) , what is its reported pIC50? > 5.30
